Test system: Staph. aureus
Assay: Agar dilution MIC, Staph. aureus
Assay type: cell-based
Settings: Staphylococcus aureus, Table II, strain S237; read-out: MIC
Reported endpoint: MIC

{"columns": ["Molecule", "Target under test", "Val"],
 "data": [
  ["CC1=C(C(=O)O)N2C(=O)C(NC(=O)[C@H](N)c3ccc4cc(O)ccc4c3)C2SC1 (some centres unmarked)", "Staph. aureus", "1 µg/mL"],
  ["COCC1=C(C(=O)O)N2C(=O)C(NC(=O)[C@H](N)c3ccc4ccccc4c3)C2SC1 (some centres unmarked)", "Staph. aureus", "0.5 µg/mL"],
  ["COc1ccc2cc([C@@H](N)C(=O)NC3C(=O)N4C(C(=O)O)=C(C)CSC34)ccc2c1 (some centres unmarked)", "Staph. aureus", "1 µg/mL"],
  ["CC1=C(C(=O)O)N2C(=O)C(NC(=O)[C@H](N)c3ccc4cc(Cl)ccc4c3)C2SC1 (some centres unmarked)", "Staph. aureus", "0.5 µg/mL"],
  ["CC1=C(C(=O)O)N2C(=O)C(NC(=O)[C@H](N)c3ccc4ccccc4c3)C2SC1 (some centres unmarked)", "Staph. aureus", "1 µg/mL"]
]}

* * *

Measured MIC, listed per entry for reference.
Test system: H. influ.
Assay: Agar dilution MIC, H. influenza
Assay type: cell-based
Conditions: Table II, strain STEL; read-out: MIC
Reported endpoint: MIC

{"columns": ["Compound", "Val"],
 "data": [
  ["COc1ccc2cc([C@@H](N)C(=O)NC3C(=O)N4C(C(=O)O)=C(C)CSC34)ccc2c1 (stereo partly shown)", "16 µg/mL"],
  ["CC1=C(C(=O)O)N2C(=O)C(NC(=O)[C@H](N)c3ccc4cc(Cl)ccc4c3)C2SC1 (stereo partly shown)", "> 64 µg/mL"],
  ["CC1=C(C(=O)O)N2C(=O)C(NC(=O)[C@H](N)c3ccc4cc(O)ccc4c3)C2SC1 (stereo partly shown)", "> 64 µg/mL"],
  ["COCC1=C(C(=O)O)N2C(=O)C(NC(=O)[C@H](N)c3ccc4ccccc4c3)C2SC1 (stereo partly shown)", "> 64 µg/mL"]
]}

* * *

Test system: Staph. epi
Assay: Agar dilution MIC, Staph. epi
Type: cell-based
Details: Table I, strain 222; read-out: MIC

{"columns": ["Compound", "MIC [µg/mL]"],
 "data": [
  ["N[C@@H](C(=O)NC1C(=O)N2C(C(=O)O)=CCSC12)c1ccc2ccccc2c1 (stereo partly drawn)", 4],
  ["CC1=C(C(=O)O)N2C(=O)C(NC(=O)[C@H](N)c3ccc4cc(Cl)ccc4c3)C2SC1 (stereo partly drawn)", 0.5],
  ["CC1=C(C(=O)O)N2C(=O)C(NC(=O)[C@H](N)c3ccc4ccccc4c3)C2SC1 (stereo partly drawn)", 0.5],
  ["COc1ccc2cc([C@@H](N)C(=O)NC3C(=O)N4C(C(=O)O)=C(C)CSC34)ccc2c1 (stereo partly drawn)", 1],
  ["COC1=C(C(=O)O)N2C(=O)C(NC(=O)C(N)c3ccc4ccccc4c3)C2SC1 (racemic)", 2],
  ["CC1=C(C(=O)O)N2C(=O)C(NC(=O)[C@H](N)c3ccc4cc(O)ccc4c3)C2SC1 (stereo partly drawn)", 1]
]}

* * *

Assay: Plasma concentration after intravenous dose in rats
Assay type: in vivo
Details: rat, intravenous 20 mg/kg, 1 hour, read-out: plasma concentration after one hour
Reported endpoint: concentration at 1 h (ng/mL)

{"columns": ["Molecule", "Reported endpoint", "Val"],
 "data": [
  ["CC1=C(C(=O)O)N2C(=O)C(NC(=O)[C@H](N)c3ccc4ccccc4c3)C2SC1 (stereo partly shown)", "concentration at 1 h", 18600]
]}
